Value source: ChEMBL document CHEMBL1129491

- Test system: Human betaherpesvirus 5
- protocolSummary: Antiviral activity in Human Cytomegalovirus Viral infection was evaluated by ELISA method
- Type: functional, organism-based
Known pIC50 of a selection of molecules
# pIC50 = -log10(concentration in molar units)

>  <smilesStructure>
Cc1ccccc1Cn1cc(C#N)c2c(N)ncnc21

>  <testSystem>
Human betaherpesvirus 5

>  <reported>
4.49

$$$$
>  <smilesStructure>
COc1ccc(Cn2cc(C(=N)S)c3c(N)ncnc32)cc1

>  <testSystem>
Human betaherpesvirus 5

>  <reported>
6.30

$$$$
>  <smilesStructure>
NC(=S)c1cn(Cc2ccccc2)c2ncnc(N)c12

>  <testSystem>
Human betaherpesvirus 5

>  <reported>
6.48

$$$$
>  <smilesStructure>
CCOCn1cc(C(=N)S)c2c(N)ncnc21

>  <testSystem>
Human betaherpesvirus 5

>  <reported>
5.15

$$$$
>  <smilesStructure>
Cc1ccc(Cn2cc(C(=N)S)c3c(N)ncnc32)cc1

>  <testSystem>
Human betaherpesvirus 5

>  <reported>
6.82

$$$$
>  <smilesStructure>
COCCOCn1cc(C(N)=S)c2c(N)ncnc21

>  <testSystem>
Human betaherpesvirus 5

>  <reported>
5.72

$$$$

Lab note: next molecule to report on.
## Task What value of pIC50 has been reported for the following molecule? NC(=S)c1cn(COCc2ccccc2)c2ncnc(N)c12
## Result 5.74

###

Known Control of a selection of compounds
- Tested on: L1210
- protocolSummary: In vitro cytotoxicity against growth rate of L1210 cell at 100 micro M was evaluated.
- Assay type: functional, Mus musculus
Expressed in %, but write only the number.

For orientation, consider the following solved cases.
>  <smilesStructure>
CCOCn1cc(C#N)c2c(N)ncnc21

>  <Control / %>
76

$$$$
>  <smilesStructure>
CCOCn1cc(C(=N)S)c2c(N)ncnc21

>  <Control / %>
111

$$$$
>  <smilesStructure>
COCCOCn1cc(C(N)=O)c2c(N)ncnc21

>  <Control / %>
92

$$$$
>  <smilesStructure>
N#Cc1cn(COCc2ccccc2)c2ncnc(N)c12

>  <Control / %>
83

$$$$
>  <smilesStructure>
NC(=S)c1cn(COCc2ccccc2)c2ncnc(N)c12

>  <Control / %>
52

$$$$

## Task Give recorded Control with L1210 for the following compound: NC(=O)c1cn(COCc2ccccc2)c2ncnc(N)c12
## Result 0

## Task Give recorded Control with L1210 for the following compound: COCCOCn1cc(C#N)c2c(N)ncnc21
## Result 88

## Task Give recorded Control with L1210 for the following compound: COCCOCn1cc(C(N)=S)c2c(N)ncnc21
## Result 88
